List of abundance fitness values.
B1: Storkhead-box protein 2, residues 64 to 141; numbered along this chain, Q9P2F5 (parent)
chain: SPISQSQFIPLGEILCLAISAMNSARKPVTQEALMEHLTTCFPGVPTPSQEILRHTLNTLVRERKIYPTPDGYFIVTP

Variants of: B1
Assay: abundance fitness (aPCA) (normalised: wild type 0, dead -1); higher = more abundant; growth selection in yeast, the domain comes from the species named
Details: Homo sapiens
readout.label: abundance fitness

INSERT INTO results (mutation, reported_measurement) VALUES
  ('N58I', -0.041),
  ('R26H', -0.09),
  ('F8M', -0.102),
  ('S6Q', -0.069),
  ('R64P', -1.09),
  ('Q31R', -0.061),
  ('L57S', -0.799),
  ('L17G', -0.016),
  ('H37F', -0.285),
  ('I66G', -0.894),
  ('I19E', -1);

Data provenance is the Human Domainome abundance scans (Beltran et al. 2025).
